molecular target: CDK16 (Homo sapiens, UniProt Q00536, S319D); construct: kinase domain, CDK16 163–478, C-terminal His tag; test: biochemical; parameters: Differential scanning fluorimetry (SYPRO Orange), 2 uM CDK16, Tm shift versus 2.5% DMSO control; details: read-out: Tm shift (°C)
Sequence (Q00536 163-478 S319D): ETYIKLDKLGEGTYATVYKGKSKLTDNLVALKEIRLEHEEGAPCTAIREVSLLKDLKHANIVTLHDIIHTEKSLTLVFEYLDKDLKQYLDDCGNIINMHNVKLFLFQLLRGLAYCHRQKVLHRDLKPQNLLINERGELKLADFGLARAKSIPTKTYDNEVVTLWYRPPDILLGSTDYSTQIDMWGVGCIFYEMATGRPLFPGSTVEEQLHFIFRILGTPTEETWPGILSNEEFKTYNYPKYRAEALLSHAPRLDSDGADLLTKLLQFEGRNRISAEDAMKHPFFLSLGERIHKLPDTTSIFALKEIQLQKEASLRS
metric-name: ΔTm at 12.5 µM (°C)
Report as a plain number; the unit °C is understood.

Give CDK16 (Homo sapiens, UniProt Q00536, S319D) ΔTm at 12.5 µM for the following molecule: `CNC(=O)c1nn(C)c2c1C(C)(C)Cc1cnc(Nc3ccc(N4CCN(C)CC4)cc3)nc1-2`
6.2

Give CDK16 (Homo sapiens, UniProt Q00536, S319D) ΔTm at 12.5 µM for the following molecule: `O=Nc1c(-c2c(O)[nH]c3ccc(I)cc23)[nH]c2ccccc12`
6.1

Give CDK16 (Homo sapiens, UniProt Q00536, S319D) ΔTm at 12.5 µM for the following molecule: `O=C1Nc2ccccc2/C1=C\c1cnc[nH]1`
6.7

Give CDK16 (Homo sapiens, UniProt Q00536, S319D) ΔTm at 12.5 µM for the following molecule: `CNC(=O)c1cc(Oc2ccc(NC(=O)Nc3cc(C(C)(C)C)nn3-c3ccc4ncccc4c3)c(F)c2)ccn1`
12.6

Give CDK16 (Homo sapiens, UniProt Q00536, S319D) ΔTm at 12.5 µM for the following molecule: CCN(CC)Cc1ccc(Nc2nccc(-c3cnn4ncccc34)n2)cc1 [GW780056X]
4.8

Give CDK16 (Homo sapiens, UniProt Q00536, S319D) ΔTm at 12.5 µM for the following molecule: `O=Nc1c(-c2c(O)[nH]c3ccc(S(=O)(=O)O)cc23)[nH]c2ccccc12`
6.7

Give CDK16 (Homo sapiens, UniProt Q00536, S319D) ΔTm at 12.5 µM for the following molecule: `CCN1CCC(CC(=O)Nc2n[nH]c3nc(-c4cccs4)c(Br)cc23)CC1`
5.4

Give CDK16 (Homo sapiens, UniProt Q00536, S319D) ΔTm at 12.5 µM for the following molecule: CC(C)(CO)CNC(=O)c1ccc2c(c1)/C(=N/Nc1ccc(S(N)(=O)=O)cc1)C(=O)N2 [GW301784X]
6
